# assayed_target: EPHB1 (human)
# assay_protocol: radiometric filter-binding kinase assay
# run_conditions: compound 10.0 µM
attribute_measured: residual activity

INSERT INTO assay_data (molecule, value_measured) VALUES
  ('CC(C)C[C@H](NC(=O)CNC(=O)c1cc(Cl)ccc1Cl)B1OC(=O)CC(CC(=O)O)(C(=O)O)O1 (some centres undefined)', '75%'),
  ('CC1=C(CO)C(=O)O[C@@H]([C@@H](C)[C@H]2CC[C@H]3[C@@H]4C[C@H]5O[C@]56[C@@H](O)C=CC(=O)[C@]6(C)C4CC[C@]23C)C1 (some centres undefined)', '107%'),
  ('NC(=O)c1cc(-c2ccnc(NC3CCCCC3)c2)nc(N2CCNCC2)c1', '99%'),
  ('O=C(N[C@@H](COc1ccc2[nH]c(=O)[nH]c2c1)c1ccccc1)c1cccn(Cc2ccc(F)c(F)c2)c1=O', '90%'),
  ('O=C(NOCC(O)CO)c1ccc(F)c(F)c1Nc1ccc(I)cc1Cl (centres undefined)', '92%'),
  ('COC(=O)/C=C/C(=O)OC', '101%'),
  ('N#Cc1c(C2CCNCC2)cc(-c2c(O)cccc2OCC2CC2)nc1N', '100%'),
  ('CCn1c(-c2nonc2N)nc2cncc(CNC3CCNCC3)c21', '82%'),
  ('O=S(=O)(c1ccc(F)c2nonc12)N1CCN(c2ncc(C(F)(F)F)cc2Cl)CC1', '117%');

----------
# assayed_target: MKNK2 (human) (UniProt Q9HBH9)
# Sequence (Q9HBH9 whole entry, looked up): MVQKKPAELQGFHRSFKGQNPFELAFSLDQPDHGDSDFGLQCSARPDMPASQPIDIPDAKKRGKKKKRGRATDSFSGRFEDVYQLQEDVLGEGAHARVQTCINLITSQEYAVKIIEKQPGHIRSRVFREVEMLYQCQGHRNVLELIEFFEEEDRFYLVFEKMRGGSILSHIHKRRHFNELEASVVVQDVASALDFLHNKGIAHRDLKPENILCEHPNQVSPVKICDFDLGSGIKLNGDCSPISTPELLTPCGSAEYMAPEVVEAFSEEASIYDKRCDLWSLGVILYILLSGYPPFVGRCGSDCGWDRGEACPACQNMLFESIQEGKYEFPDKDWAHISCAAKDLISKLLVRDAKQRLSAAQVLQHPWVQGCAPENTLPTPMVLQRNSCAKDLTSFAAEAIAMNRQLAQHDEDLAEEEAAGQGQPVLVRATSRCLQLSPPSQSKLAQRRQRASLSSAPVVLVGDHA
# assay_protocol: radiometric filter-binding kinase assay
# run_conditions: compound 10.0 µM
attribute_measured: residual activity (%)

INSERT INTO measurements (compound, measurement_unit, value_measured) VALUES
  ('CCCCCc1ccc(/C=C/[C@H](O)[C@@H](CO)NC)cc1', '%', 102),
  ('NS(=O)(=O)OC[C@@H]1C[C@@H](n2ccc3c(N[C@H]4CCc5ccccc54)ncnc32)C[C@@H]1O', '%', 108),
  ('O=C1Nc2nc(-c3c(O)cccc3OCC3CC3)cc(C3CCCNC3)c2CO1 (stereo not given)', '%', 87),
  ('O=C(NOCC(O)CO)c1ccc(F)c(F)c1Nc1ccc(I)cc1Cl (stereo not given)', '%', 90),
  ('O=C(N[C@@H](COc1ccc2[nH]c(=O)[nH]c2c1)c1ccccc1)c1cccn(Cc2ccc(F)c(F)c2)c1=O', '%', 112),
  ('CNc1nc(-c2ccc3c(N)n[nH]c3c2)cc(N2C[C@@H](C(=O)NC3CCCCC3)CC[C@H]2C)n1', '%', 94),
  ('NC(=O)c1ccc(-c2ccc(Oc3cncc4sc(-c5nn[nH]n5)cc34)cc2)cc1', '%', 58),
  ('Oc1ccc(/C=C/c2cc(O)cc(O)c2)cc1', '%', 96),
  ('N#Cc1c(O)c2c(-c3ccc(-c4ccccc4O)cc3)csc2[nH]c1=O', '%', 102),
  ('C=CC(=O)N1CCC[C@@H](n2nc(-c3ccc(Oc4ccccc4)cc3)c3c(N)ncnc32)C1', '%', 67),
  ('c1ccc2c(-c3cnn4cc(-c5ccc(N6CCNCC6)cc5)cnc34)ccnc2c1', '%', 34),
  ('NC(=O)c1c(NC(=O)C2CC2)sc2c1CCCC2', '%', 115),
  ('FC(F)(F)c1ccc(-c2ccc(Oc3cncc4sc(-c5nn[nH]n5)cc34)cc2)cc1', '%', 64),
  ('Cc1ccc(-c2ccc3c(ccc4sc5c(c43)NC[C@@H](C)NC5=O)n2)cn1', '%', 26),
  ('CCNc1nc(Nc2cc(F)c(C(=O)N3CCOCC3)cc2OC)ncc1C(F)(F)F', '%', 23),
  ('Cc1ccc(Sc2cnc(Nc3cccc(Br)n3)s2)cc1C(=O)N1CCN(C(=O)CN)CC1', '%', 73),
  ('NC(=O)Nc1ccc2c(c1)/C(=C/c1cc(-c3cccnc3)c[nH]1)C(=O)N2', '%', 16),
  ('CC(C)(C#N)c1ccc(N2C(=O)OCc3cnc4ccc(-c5cnc6ccccc6c5)cc4c32)cc1', '%', 99),
  ('COc1ccc2c(c1)c1c3c(c4c5ccccc5n(C)c4c1n2CC(O)CN(C)C)C(=O)NC3=O (stereo not given)', '%', 70),
  ('Cc1cccc(Nc2nn(C)c3ncnc(N)c23)c1', '%', 76);

----------
# assayed_target: UniProt:Q7KZI7
# Sequence (Q7KZI7 whole entry, looked up): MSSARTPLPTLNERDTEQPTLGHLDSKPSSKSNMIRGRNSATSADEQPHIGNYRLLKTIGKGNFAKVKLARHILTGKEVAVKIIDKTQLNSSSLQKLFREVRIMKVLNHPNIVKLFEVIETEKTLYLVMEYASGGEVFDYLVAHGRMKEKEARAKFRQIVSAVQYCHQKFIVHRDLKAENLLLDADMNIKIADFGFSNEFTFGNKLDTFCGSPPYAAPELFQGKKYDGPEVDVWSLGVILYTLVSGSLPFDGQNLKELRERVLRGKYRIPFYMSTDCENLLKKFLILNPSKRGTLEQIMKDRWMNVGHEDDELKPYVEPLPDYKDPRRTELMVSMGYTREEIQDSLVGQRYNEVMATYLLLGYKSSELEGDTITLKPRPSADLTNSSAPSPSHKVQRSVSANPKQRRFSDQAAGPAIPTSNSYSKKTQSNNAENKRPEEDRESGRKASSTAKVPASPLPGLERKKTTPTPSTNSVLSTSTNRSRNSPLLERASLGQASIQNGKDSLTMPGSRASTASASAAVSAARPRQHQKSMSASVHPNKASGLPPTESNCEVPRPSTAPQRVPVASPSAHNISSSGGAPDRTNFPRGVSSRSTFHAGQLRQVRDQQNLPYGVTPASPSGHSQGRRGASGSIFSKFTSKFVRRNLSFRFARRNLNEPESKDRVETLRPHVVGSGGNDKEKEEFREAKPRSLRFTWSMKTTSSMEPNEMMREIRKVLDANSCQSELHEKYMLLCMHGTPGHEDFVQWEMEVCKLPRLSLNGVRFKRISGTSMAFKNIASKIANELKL
# assay_protocol: radiometric filter-binding kinase assay
# run_conditions: compound 0.01 µM
attribute_measured: residual activity (%)

INSERT INTO results (molecule, value_measured) VALUES
  ('CNC(=O)C1[C@H]2O[C@@](C)([C@@H]1N)n1c3ccccc3c3c4c(c5c6ccccc6n2c5c31)C(=O)NC4 (some centres undefined)', 11),
  ('CNc1nc(-c2ccc3c(N)n[nH]c3c2)cc(N2C[C@@H](C(=O)NC3CCCCC3)CC[C@H]2C)n1', 113),
  ('COc1cc(O)c2c(c1)[C@H]1OC1C[C@H](O)[C@H](O)C(=O)/C=C\C[C@H](C)OC2=O (some centres undefined)', 90),
  ('COc1ccc(N(C(=O)Nc2c(C)cccc2C)c2cc(Nc3ccc(N4CCN(C)CC4)cc3)ncn2)c(OC)c1', 101);

----------
# assayed_target: RIPK2 (human)
# assay_protocol: radiometric filter-binding kinase assay
# run_conditions: compound 0.1 µM
residual activity reference
attribute_measured: residual activity

INSERT INTO measurements (compound, attribute_measured, value_measured) VALUES
  ('CNC(=O)C1[C@H]2O[C@@](C)([C@@H]1N)n1c3ccccc3c3c4c(c5c6ccccc6n2c5c31)C(=O)NC4 (some centres undefined)', 'residual activity', '26%'),
  ('O=C(O)c1ccc(-c2c[nH]c3ncc(-c4ccccc4)cc23)cc1C1CCCC1', 'residual activity', '55%'),
  ('O=C(N[C@@H](COc1ccc2[nH]c(=O)[nH]c2c1)c1ccccc1)c1cccn(Cc2ccc(F)c(F)c2)c1=O', 'residual activity', '102%'),
  ('NC1(c2ccc(-c3nc4ccn5c(=O)[nH]nc5c4cc3-c3ccccc3)cc2)CCC1', 'residual activity', '101%');

----------
# assayed_target: EEF2K (human)
# assay_protocol: radiometric filter-binding kinase assay
# run_conditions: compound 0.01 µM
attribute_measured: residual activity (%)

INSERT INTO assay_data (molecule, attribute_measured, value_measured) VALUES
  ('C/C(=C1/C(=O)Nc2ccc(NC(N)=O)cc21)c1ccc[nH]1', 'residual activity', 101),
  ('CNC(=O)C1[C@H]2O[C@@](C)([C@@H]1N)n1c3ccccc3c3c4c(c5c6ccccc6n2c5c31)C(=O)NC4 (stereo not given in full)', 'residual activity', 105),
  ('CNc1nc(-c2ccc3c(N)n[nH]c3c2)cc(N2C[C@@H](C(=O)NC3CCCCC3)CC[C@H]2C)n1', 'residual activity', 108),
  ('COc1cc(O)c2c(c1)[C@H]1OC1C[C@H](O)[C@H](O)C(=O)/C=C\C[C@H](C)OC2=O (stereo not given in full)', 'residual activity', 91),
  ('O=C(Nc1nc2cc(C(F)(F)F)cc(NC3CC3)n2n1)c1cccnc1', 'residual activity', 99);

----------
# assayed_target: MINK1 (human) (UniProt Q8N4C8)
# Sequence (Q8N4C8 whole entry, looked up): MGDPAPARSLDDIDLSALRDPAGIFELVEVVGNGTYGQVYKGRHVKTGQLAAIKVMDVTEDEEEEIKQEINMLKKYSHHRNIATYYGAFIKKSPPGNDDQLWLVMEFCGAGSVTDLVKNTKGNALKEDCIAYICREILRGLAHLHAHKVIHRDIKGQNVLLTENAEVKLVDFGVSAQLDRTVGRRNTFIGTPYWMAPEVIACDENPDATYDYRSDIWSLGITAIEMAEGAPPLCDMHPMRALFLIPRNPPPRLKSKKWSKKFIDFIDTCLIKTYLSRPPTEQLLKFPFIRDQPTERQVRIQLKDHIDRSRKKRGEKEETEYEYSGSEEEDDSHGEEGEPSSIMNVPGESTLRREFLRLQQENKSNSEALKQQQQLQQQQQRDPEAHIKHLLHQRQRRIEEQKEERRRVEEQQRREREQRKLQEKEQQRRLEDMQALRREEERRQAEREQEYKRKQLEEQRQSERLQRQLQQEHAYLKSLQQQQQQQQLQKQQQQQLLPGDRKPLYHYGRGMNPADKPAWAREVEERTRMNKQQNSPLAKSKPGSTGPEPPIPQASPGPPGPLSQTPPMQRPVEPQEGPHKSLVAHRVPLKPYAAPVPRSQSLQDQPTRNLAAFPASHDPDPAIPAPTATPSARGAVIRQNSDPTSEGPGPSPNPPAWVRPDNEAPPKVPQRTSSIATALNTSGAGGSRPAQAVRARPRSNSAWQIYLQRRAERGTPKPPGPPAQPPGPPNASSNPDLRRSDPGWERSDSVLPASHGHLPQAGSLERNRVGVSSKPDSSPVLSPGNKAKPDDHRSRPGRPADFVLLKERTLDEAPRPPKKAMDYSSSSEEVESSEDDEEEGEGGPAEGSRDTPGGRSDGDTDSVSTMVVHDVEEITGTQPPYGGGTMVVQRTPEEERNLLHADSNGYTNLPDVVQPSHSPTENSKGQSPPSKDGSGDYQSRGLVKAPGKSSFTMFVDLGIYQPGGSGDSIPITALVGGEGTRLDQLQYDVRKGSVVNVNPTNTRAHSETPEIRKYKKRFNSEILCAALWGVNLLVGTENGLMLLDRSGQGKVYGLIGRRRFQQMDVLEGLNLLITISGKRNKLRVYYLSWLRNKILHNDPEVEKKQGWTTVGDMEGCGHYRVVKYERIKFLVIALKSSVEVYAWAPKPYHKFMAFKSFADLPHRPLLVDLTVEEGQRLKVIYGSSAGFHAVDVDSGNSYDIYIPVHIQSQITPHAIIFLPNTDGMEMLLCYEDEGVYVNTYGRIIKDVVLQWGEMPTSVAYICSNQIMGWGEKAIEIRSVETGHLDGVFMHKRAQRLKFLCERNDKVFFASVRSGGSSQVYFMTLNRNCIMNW
# assay_protocol: radiometric filter-binding kinase assay
# run_conditions: compound 10.0 µM
residual activity reference
attribute_measured: residual activity

INSERT INTO results (smiles_representation, assayed_target, attribute_measured, value_measured) VALUES
  ('O=C(NOC[C@H](O)CO)c1ccc(F)c(F)c1Nc1ccc(I)cc1Cl', 'MINK1 (human) (UniProt Q8N4C8)', 'residual activity', '144%'),
  ('CCCCCc1ccc(/C=C/[C@H](O)[C@@H](CO)NC)cc1', 'MINK1 (human) (UniProt Q8N4C8)', 'residual activity', '111%'),
  ('O=C(Nc1cccnc1)c1cc(-c2ccnc(F)c2)ccc1OCc1ccccc1', 'MINK1 (human) (UniProt Q8N4C8)', 'residual activity', '76%'),
  ('Cc1nc(-c2ccc(OCC(C)C)c(C#N)c2)sc1C(=O)O', 'MINK1 (human) (UniProt Q8N4C8)', 'residual activity', '104%'),
  ('NC1(c2ccc(-c3nc4ccn5c(=O)[nH]nc5c4cc3-c3ccccc3)cc2)CCC1', 'MINK1 (human) (UniProt Q8N4C8)', 'residual activity', '69%');
